# assay.info: Inhibition of sPLA2 from Naja mossambica mossambica by fluorescence technique
readout.type: IC50 (µM)
Respond numerically; units are µM and should not be typed.

{"test.smiles": "CC1=C(/C=C/C(C)=C/C=C/C(C)=C/C(=O)O)C(C)(C)CCC1", "IC50 / µM": 15}

Specify IC50 for CC1=C(/C=C/C(C)=C/C=C/C(C)=C/C(=O)OCCCCCC(=O)O)C(C)(C)CCC1 and stop. 8

----------
Below, each entry is listed with its recorded IC50.
# System: COLO 205
# assay.info: Cytotoxicity against human COLO205 cells after 48 hrs by MTT assay
# Assay type: functional, cell-based
# experimental.context: COLO 205, 48 h
Respond numerically; units are µM and should not be typed.

Check out these entries, answers already filled in.
{"molecule": "CCCCCCCCCCCCCCCCCCOC[C@H](COP(=O)([O-])OC[C@@H](O)CO)OC(=O)CCCCCOC(=O)c1ccc(-c2ccc(CCCCCCCC)cc2)cc1.[Na+]", "value.unit": "µM", "measured.result": 7}
{"molecule": "CC1=C(/C=C/C(C)=C/C=C/C(C)=C/C(=O)OCCCCCC(=O)O)C(C)(C)CCC1", "value.unit": "µM", "measured.result": 17}
{"molecule": "CCCCCCCCCCCCCCCCCC(=O)OC[C@H](COP(=O)([O-])OC[C@@H](O)CO)OC(=O)CCCCCOC(=O)/C=C(C)/C=C/C=C(C)/C=C/C1=C(C)CCCC1(C)C.[Na+]", "value.unit": "µM", "measured.result": 12}

Specify IC50 for CCCCCCCCCCCCCCCCCC(=O)OC[C@H](COP(=O)([O-])OC[C@@H](O)CO)OC(=O)CCCCCOC(=O)c1ccc(-c2ccc(CCCCCCCC)cc2)cc1.[Na+] and stop. 19

Specify IC50 for CCCCCCCCCCCCCCCCCC(=O)OC[C@@H](O)COP(=O)(O)OCC(O)CO (some centres not stated) and stop. 22

Specify IC50 for CCCCCCCCCCCCCCCCCCOC[C@H](COP(=O)(O)OC[C@H](O)CO)OC(=O)CCCCCCCCCCCCCCCCC and stop. 33

Specify IC50 for CCCCCCCCCCCCCCCCCCOC[C@@H](O)COP(=O)(O)OC[C@@H](O)CO and stop. 25

----------
# assay.info: Stability assessed as compound degradation after 48 hrs by MALDI-TOF MS analysis in presence of Agkistrodon piscivorus piscivorus venom sPLA2
# Assay type: ADME

{"test.smiles": "CCCCCCCCCCCCCCCCCC(=O)OC[C@H](COP(=O)([O-])OC[C@@H](O)CO)OC(=O)CCCCCOC(=O)c1ccc(-c2ccc(CCCCCCCC)cc2)cc1.[Na+]", "Stability": "Unstable"}
{"test.smiles": "CCCCCCCCCCCCCCCCCCOC[C@H](COP(=O)([O-])OC[C@@H](O)CO)OC(=O)CCCCCOC(=O)/C=C(C)/C=C/C=C(C)/C=C/C1=C(C)CCCC1(C)C.[Na+]", "Stability": "Unstable"}
{"test.smiles": "CCCCCCCCCCCCCCCCCC(=O)OC[C@H](COP(=O)([O-])OC[C@@H](O)CO)OC(=O)CCCCCOC(=O)/C=C(C)/C=C/C=C(C)/C=C/C1=C(C)CCCC1(C)C.[Na+]", "Stability": "Unstable"}
{"test.smiles": "CCCCCCCCCCCCCCCCCCOC[C@H](COP(=O)([O-])OC[C@@H](O)CO)OC(=O)CCCCCOC(=O)c1ccc(-c2ccc(CCCCCCCC)cc2)cc1.[Na+]", "Stability": "Unstable"}

----------
# System: HT-29
# assay.info: Cytotoxicity against human HT-29 cells after 48 hrs by MTT assay in presence of Agkistrodon piscivorus piscivorus venom sPLA2
# Type: functional, cell-based
# experimental.context: HT-29, 48 h
readout.type: pIC50
pIC50 field: float, defined as -log10 of concentration (mol/L).

{"test.smiles": "CCCCCCCCCCCCCCCCCC(=O)OC[C@H](COP(=O)([O-])OC[C@@H](O)CO)OC(=O)CCCCCOC(=O)c1ccc(-c2ccc(CCCCCCCC)cc2)cc1.[Na+]", "pIC50": 5.10}
{"test.smiles": "CCCCCCCCCCCCCCCCCC(=O)OC[C@H](COP(=O)(O)OC[C@H](O)CO)OC(=O)CCCCCCCCCCCCCCCCC", "pIC50": 4.60}

Now, please, on to the next molecule.
Specify pIC50 for CCCCCCCCCCCCCCCCCC(=O)OC[C@H](COP(=O)([O-])OC[C@@H](O)CO)OC(=O)CCCCCOC(=O)/C=C(C)/C=C/C=C(C)/C=C/C1=C(C)CCCC1(C)C.[Na+] and stop. 5.22

----------
Below, each entry is listed with its recorded IC50.
# Test system: COLO 205
# assay.info: Cytotoxicity against human COLO205 cells after 48 hrs by MTT assay
# Assay type: functional, cell-based
# experimental.context: COLO 205, 48 h
Respond numerically; units are µM and should not be typed.

Check out these entries, answers already filled in.
{"compound": "CCCCCCCCCCCCCCCCCCOC[C@H](COP(=O)([O-])OC[C@@H](O)CO)OC(=O)CCCCCOC(=O)/C=C(C)/C=C/C=C(C)/C=C/C1=C(C)CCCC1(C)C.[Na+]", "study.target": "COLO 205", "IC50, µM": 16}
{"compound": "CCCCCCCCCCCCCCCCCC(=O)OC[C@H](COP(=O)(O)OC[C@H](O)CO)OC(=O)CCCCCCCCCCCCCCCCC", "study.target": "COLO 205", "IC50, µM": 54}
{"compound": "CC1=C(/C=C/C(C)=C/C=C/C(C)=C/C(=O)O)C(C)(C)CCC1 [TRETINOIN]", "study.target": "COLO 205", "IC50, µM": 37}

Specify IC50 for CCCCCCCCc1ccc(-c2ccc(C(=O)OCCCCCC(=O)O)cc2)cc1 and stop. 127

----------
Below, each entry is listed with its recorded IC50.
# Tested on: HT-29
# assay.info: Cytotoxicity against human HT-29 cells after 48 hrs by MTT assay in presence of Agkistrodon piscivorus piscivorus venom sPLA2
# Format: functional, cell-based
# experimental.context: HT-29, 48 h
Respond numerically; units are µM and should not be typed.

Check out these entries, answers already filled in.
{"test.smiles": "CCCCCCCCCCCCCCCCCCOC[C@H](COP(=O)([O-])OC[C@@H](O)CO)OC(=O)CCCCCOC(=O)c1ccc(-c2ccc(CCCCCCCC)cc2)cc1.[Na+]", "readout.type": "IC50", "value.unit": "µM", "measured.result": 3}
{"test.smiles": "CCCCCCCCCCCCCCCCCCOC[C@H](COP(=O)([O-])OC[C@@H](O)CO)OC(=O)CCCCCOC(=O)/C=C(C)/C=C/C=C(C)/C=C/C1=C(C)CCCC1(C)C.[Na+]", "readout.type": "IC50", "value.unit": "µM", "measured.result": 7}

Now, please, on to the next compound.
Specify IC50 for CCCCCCCCCCCCCCCCCCOC[C@H](COP(=O)(O)OC[C@H](O)CO)OC(=O)CCCCCCCCCCCCCCCCC and stop. 9
